- assay.explanation: IUF_NPC2c_oligodendrocyte_migration_120hr: Leibniz Research Institute for Environmental Medicine (IUF) 120-hour Neural Progenitor Cell Migration Assay for Oligodendrocyte Migration (NPC2c) (AID 2284297);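 note: O4-positive oligodendrocyte migration distance divided by radial glia migration distance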
Calls of active or inactive are those of the source. Rule for the calls: active = hit-call score of the fitted dose curve at least 0.9, where 1 is the maximum; inactive = score below 0.9.

# molecule, AC50
measured = [
    ("COCCOCCOCCO", "inactive"),
    ("CN(C)CCOC(C)(c1ccccc1)c1ccccn1 (centres undefined)", "inactive"),
    ("COCCc1ccc(OCC(O)CNC(C)C)cc1 (centres undefined)", "inactive"),
    ("Oc1c(Cl)cc(Cl)c(Cl)c1Cc1c(O)c(Cl)cc(Cl)c1Cl", "124 nM (active)"),
]

From: PubChem BioAssay (EPA / NIEHS)
